Origin of values: patent US9340577B2

- assay.target: HLA-A*0201 (HLA-A2.1) (Homo sapiens, UniProt P04439, D140Y/D185E/D98H/E176V/E277Q/G131W/G231S/I119V/I121R/I166T/I218V/L300P/L318F/N151K/N90K/P208A/P217A/Q86G/Q94H/R138H/R169H/T345S)
- measurement.description: biochemical
- Assay type: binding
Label condition met when A2.1 is strictly below 0.0001; otherwise label condition not met.

ILESLFRAVI
condition not met
TLEEVPTA
condition met
AISRKMVELV
condition met

Please check: A2.1 for `FLIIVLVMIA` , strictly under 0.0001 or not?
condition not met

Please check: A2.1 for `KMVELVHFL` , strictly under 0.0001 or not?
condition not met

* * *

- assay.target: DRB1*1201 (Homo sapiens, UniProt P01903+P01911, A100R/A169T/D57E/D86V/F55L/H45Y/K41T/L162R/M171V/P40S/Q125H/Q178H/Q39Y/Q99D/R42G/S66L/T262R/V114A/V67L/W38E/Y59H/Y61H/Y89S)
- measurement.description: biochemical
- Type: binding
No end group written: not given here.
reported.endpoint: IC50

ETCMLIEPPKLRSSV [Peptide 89.0084]
0.708 µM
IIHLKGDPNSLKCLR [Peptide 90.0228]
5.83 µM
SEIYIIEETTCTLVA [Peptide 90.0250]
> 20 µM
EDFFKLERDMKINCS [Peptide 68.0167]
> 20 µM
ENSIQADTEAARALF [Peptide 90.0078]
7.44 µM
GCWRQTSREPRESTV [Peptide 1543.46]
> 20 µM

// IC50 lookup, key: KSLFGMSLMKFLQGS [Peptide 89.0020]
0.944 µM

// IC50 lookup, key: QQTVCREGVKRRLIL [Peptide 90.0129]
12.7 µM

* * *

- assay.target: HLA-A3.2 (A*0301) (Homo sapiens)
- measurement.description: biochemical
- Format: binding
No end group written: not given here.
reported.endpoint: IC50 (nM)
Report the value in nM with no unit label.

SQRLNVCQDK [Peptide 88.0205]
1870
KQMSMSQWIK [Peptide 1587.09]
49
GVSIEWRQR [Peptide 9017.0087]
13100

Please tell me: IC50 of ETNEALELK [Peptide 1556.68] , system HLA-A3.2 (A*0301) (Homo sapiens)?
16800

Please tell me: IC50 of ATMCRHYKR [Peptide 1587.08] , system HLA-A3.2 (A*0301) (Homo sapiens)?
90

Please tell me: IC50 of VTIRVAGQVK [Peptide 1516.04] , system HLA-A3.2 (A*0301) (Homo sapiens)?
53

Please tell me: IC50 of RINTWKSLVK [Peptide 9017.0215] , system HLA-A3.2 (A*0301) (Homo sapiens)?
12

Please tell me: IC50 of RIGILRQRR [Peptide 9017.0113] , system HLA-A3.2 (A*0301) (Homo sapiens)?
277

* * *

- assay.target: A*0203 (Homo sapiens, UniProt P04439, A173T/D140Y/D185E/D98H/E277Q/G131W/G231S/I119V/I121R/I166T/I218V/L180W/L300P/L318F/N151K/N90K/P208A/P217A/Q86G/Q94H/R138H/R169H/T345S)
- measurement.description: biochemical
- Format: binding
No end group written: not given here.
Label true when IC50 is strictly below 30 nM; otherwise label false.

VLAEAMSAA [Peptide 1516.11]
true
GLQQATPGPA [Peptide 9013.0143]
true
EVFIPNITV [Peptide 9013.0062]
false
KLITVSAEL [Peptide 9013.0084]
true
SLMKFLQGSV [Peptide 1578.04]
true

Please check: IC50 for ITIGVLVGV [Peptide 9013.0109] , strictly under 30 nM or not?
true

Please check: IC50 for LLTFWNPPTV [Peptide 9013.0120] , strictly under 30 nM or not?
true

Please check: IC50 for RLQLSNGNRTL [Peptide 9013.0286] , strictly under 30 nM or not?
false

Please check: IC50 for MTSNPAIPV [Peptide 1539.03] , strictly under 30 nM or not?
false

Please check: IC50 for QLSNGNRTL [Peptide 9013.0050] , strictly under 30 nM or not?
false

Please check: IC50 for RTLTLLSVV [Peptide 9013.0075] , strictly under 30 nM or not?
false

Please check: IC50 for ALYWYRTGM [Peptide 86.0189] , strictly under 30 nM or not?
false
